# System: M14 melanoma
# method_description: NCI tumour cell line growth inhibition, 48 h
property_measured: TGI (µM)
Give your result in µM as a bare value.

| compound | assay_target | unit_symbol | TGI |
| --- | --- | --- | --- |
| COc1cc(C(=O)/C=C/c2cccnc2Nc2ccc(Cl)cc2)cc(OC)c1OC | M14 melanoma | µM | 3.22 |
| C=C(CN(C)C)C(=O)c1ccccc1 | M14 melanoma | µM | 7.54 |
| Cc1cc2c(C(C)C)c(O)c(O)c(/C=N/O)c2c(O)c1-c1c(C)cc2c(C(C)C)c(O)c(O)c(/C=N/O)c2c1O | M14 melanoma | µM | 10.1 |
| CC(C)(C)c1cc(Cc2ccc(S(C)(=O)=O)cc2)c(O)c(C(C)(C)C)c1 | M14 melanoma | µM | 28.9 |

Alright, here's another compound for you.
**Q:** Could you tell me which TGI is on file for `COc1ccc(/C(=N/Nc2nc3ccccc3n2Cc2ccccc2)C(=O)O)cc1` ?
**A:** 38.9

----------
# Test system: RXF 393 renal
# method_description: NCI tumour cell line growth inhibition, 48 h
*1 amine or outer side, *2 acyl side, *3 side chain or, on linkers, in order; H or OH if unused. Where a SMILES comes first, the peptide text is derived from it. Bridges are numbered along the chain shown (N, C = ends). Roman numbers before positions name the chains, in order. [ ]: non-standard residue; d: D form. Actinocin(1to9) = Cc1c2oc3c(C)ccc(C(=O)[*:2])c3nc-2c(C(=O)[*:1])c(N)c1=O; NMeV = CN[CH](C(=O)O)C(C)C; Sar = CNCC(=O)O
property_measured: TGI (µM)
Reply with just the number (in µM).

| compound | reported_result |
| --- | --- |
| C/C=C(/C)C(=O)OC1C=C(CO)C(=O)C(OC(=O)C2(C)OC2C)C1C(C)C (configuration not stated) | 3.27 |
| O=C1NC(=Nc2ccccc2Cl)N/C1=C\c1c(Cl)cccc1Cl | 68 |
| COc1ccc(CC2NC(=O)C(NC(=O)c3c4nc5c(C(=O)NC6C(=O)NC(Cc7ccc(OC)cc7)C(=O)N7CCCC7C(=O)N(C)CC(=O)N(C)C(C(C)C)C(=O)OC6C)ccc(C)c5oc-4c(C)c(=O)c3N)C(C)OC(=O)C(C(C)C)N(C)C(=O)CN(C)C(=O)C3CCCN3C2=O)cc1 (configuration not stated) (I: TY(Me)P[Sar][NMeV] / II: TY(Me)P[Sar][NMeV]; ester I:1-I:C, II:1-II:C; linker I:N-II:N via Actinocin(1to9); configuration not given here) | 0.0203 |

**Q:** Recorded TGI of `C=C(CC)C(=O)c1ccc(OCC(=O)O)c(Cl)c1Cl` , please.
**A:** 34.2

**Q:** State the recorded TGI for this entry: `O=c1c2c3c(sc2nc2n1sc1nc4sc5c(c4c(=O)n12)CCCC5)CCCC3`
**A:** 38.5

**Q:** Look up TGI: `CC(=O)OC/C=C\Cn1ncc(=O)[nH]c1=O`
**A:** 37.1

----------
# System: OVCAR-3 ovarian
# method_description: NCI tumour cell line growth inhibition, 48 h
GI50 reference

These recorded examples may help you get a feel for the data.
| compound | GI50 |
| --- | --- |
| CC(C)N(CCNc1nc(C(Cl)(Cl)Cl)nc2cc(Cl)ccc12)C(C)C | 1680 nM |
| CC(C)(Oc1cccc(N2CCC[C@@H](C(=O)N(Cc3ccc(-c4cn[nH]c4)cc3)C3CC3)C2)c1)C(=O)N1CCNCC1 | 12400 nM |
| [CH3][Ge]([CH3])([CH2]CC#N)[S]c1ccccc1 | 12300 nM |

**Q:** State the recorded GI50 for this entry: `Oc1ccc(/C=N/NC(=S)Nc2ccccc2)nc1`
**A:** 405 nM

**Q:** Can you share its GI50? I mean this compound: `CCN(CC)CCOc1ccc2c(-c3ccccc3)c(-c3ccc(OC)cc3)c(=O)oc2c1`
**A:** 4320 nM

**Q:** Given `N=C1C(c2nc3ccccc3c(=O)[nH]2)=C(O)CN1c1cccc(Cl)c1` , state its recorded GI50.
**A:** 2150 nM

**Q:** Recorded GI50 of `COc1cc2c3c(n(CCCNCCCCN)c(=O)c2cc1OC)-c1cc2c(cc1C3=O)OCO2` , please.
**A:** 2770 nM

**Q:** Using the record for `COC(=O)COc1ccccc1/C=C1/N=C(c2ccccc2)N(c2c(C)n(C)n(-c3ccccc3)c2=O)C1=O` , report its GI50.
**A:** 20900 nM

**Q:** Could you share which GI50 value was measured for `CN1C(=O)[C@@H](CC2CCCC2)N(C2CCCC2)c2nc(Nc3cc(Cl)c(O)c(Cl)c3)ncc21` ?
**A:** 21800 nM

**Q:** Report GI50 for CC[C@]1(O)CC2CN(CCc3c([nH]c4ccccc34)C(C(=O)OC)(c3cc4c(cc3OC)N(C=O)[C@H]3[C@@](O)(C(=O)OC)[C@H](OC(C)=O)[C@]5(CC)[C@@H]6C[C@@H]6CN6CC[C@]43[C@@H]65)C2)C1 (stereo partly drawn) please.
**A:** < 3.25 nM

**Q:** Can you share its GI50? I mean this compound: CCOC(=O)C(Cc1ccccc1)n1c(O)c(/C=N/c2ncc(Cc3ccc(Cl)cc3Cl)s2)sc1=S (stereo not drawn)
**A:** 2840 nM

**Q:** So what's the measured GI50 for this one? `Nc1ncc(-c2ccc3ncnc(N4CCc5cc(F)c(Cl)cc54)c3c2)cc1C=O`
**A:** 1660 nM

**Q:** Which GI50 value belongs to `O=C(Nc1nc2ccc(OC(F)(F)F)cc2s1)c1ccc(F)cc1` ?
**A:** 2220 nM
